Entry source: ChEMBL document CHEMBL1201862

Catalogue of GI50 values
Tested on: MDA-MB-231
Assay: NCI tumour cell line growth inhibition, 48 h
Activity calls are given as the source filed them. Cut-off read from the data, not from the text of the source: active = GI50 up to about 1.1 µM and inactive = higher.

{"COMPOUND": "COc1ccc(/C=C(/C)[N+](=O)[O-])cc1", "ASSAYED_SYSTEM": "MDA-MB-231", "READOUT_KIND": "GI50", "VALUE_REPORTED": "3.24 µM (inactive)"}
{"COMPOUND": "Fc1ccc(Oc2nc3ccc(C(F)(F)F)cc3nc2-c2ccccc2)cc1", "ASSAYED_SYSTEM": "MDA-MB-231", "READOUT_KIND": "GI50", "VALUE_REPORTED": "> 100 µM (inactive)"}
{"COMPOUND": "Nc1c2c(nc3ccccc13)-c1ccccc1CCC2", "ASSAYED_SYSTEM": "MDA-MB-231", "READOUT_KIND": "GI50", "VALUE_REPORTED": "13.8 µM (inactive)"}
{"COMPOUND": "N=c1c2c(=S)n(-c3ccccc3)c(=S)n(-c3ccccc3)c2nc(SCCCN2CCCCC2)n1-c1ccccc1", "ASSAYED_SYSTEM": "MDA-MB-231", "READOUT_KIND": "GI50", "VALUE_REPORTED": "1.64 µM (inactive)"}
{"COMPOUND": "Oc1cccc2cc(Cl)cnc12", "ASSAYED_SYSTEM": "MDA-MB-231", "READOUT_KIND": "GI50", "VALUE_REPORTED": "9.68 µM (inactive)"}

Request: Requested read-out GI50, target or system MDA-MB-231, entry `O=c1oc2ccccc2cc1-c1csc(Nc2cc(Cl)cc(Cl)c2)n1`
Response: 4.66 µM (inactive)

Request: Please give the result for COc1cc2[nH]c3c(c2cc1OC)CCN[C@@]31CC[C@@]2(CC3c4c(cc(OC)c(O)c42)CCN3C)C[C@@H]1OC (stereo partly drawn) too.
Response: 28.1 µM (inactive)

Request: // query: `O=C(/C=C1\Nc2ccccc2N\C1=C\C(=O)c1ccc(Cl)cc1)c1ccccc1`
Response: > 100 µM (inactive)

Request: Now the same for CN(C)C1(N(C)C)Oc2c(c(=O)n(C)c(=O)n2C)C(c2ccccc2)C1(F)F (stereo not drawn)
Response: > 100 µM (inactive)

Request: Now consider `FC(F)(F)c1cccc(-c2nc3nc(Cl)c(Cl)nc3[nH]2)c1` and answer again.
Response: 2.02 µM (inactive)

Request: Entry to check: `COc1ccc(C(=O)/C=C/c2ccc(OCC(=O)N3CCN(c4ccccc4)CC3)cc2)cc1OC`
Response: 4.69 µM (inactive)

Request: Continue with `COc1ccc2nc3cc([N+](=O)[O-])ccc3c(Nc3ccc(S(=O)(=O)N=C(N)N)cc3)c2c1`
Response: 17.2 µM (inactive)

Request: Same question for `CN(C)CCCNc1nnc(NCCCN(C)C)c2c(=O)c3sccc3[nH]c12` please.
Response: 6 µM (inactive)
